Value source: ChEMBL document CHEMBL3286286

Measured Target: Prostaglandin G/H synthase 2 (Homo sapiens)
Assay Remarks: Inhibition of human recombinant COX2 using arachidonic acid as substrate
Test Readout: IC50 (nM)

I: COc1ccc(-c2ccccc2-c2nc3ccccc3o2)cc1Cl
II: CS(=O)(=O)c1ccc(-c2ccccc2-c2nc3ccccc3o2)cc1
III: Oc1ccc(-c2ccccc2-c2nc3ccccc3o2)cc1Cl
Rank by decreasing IC50 the items listed here. Sort the labels as requested; that list is your answer.
II, I, III
(II: 1340 nM, I: 670 nM, III: 410 nM)

====

Measured Target: Prostaglandin G/H synthase 2 (Homo sapiens)
Setup Conditions: at 10 µM
Description: Inhibition of human recombinant COX2 using arachidonic acid as substrate at 10 uM
Test Readout: inhibition (%)

Look over these answered cases.
>  <Cpd Smiles>
O=Cc1ccc(-c2ccccc2-c2nc3ccccc3o2)cc1

>  <Test Readout>
inhibition

>  <Value Measured>
58

$$$$
>  <Cpd Smiles>
FC(F)(F)c1ccc(-c2ccccc2-c2nc3ccccc3o2)cc1

>  <Test Readout>
inhibition

>  <Value Measured>
11.7

$$$$

A: Fc1ccc(-c2ccccc2-c2nc3ccccc3o2)cc1
B: N#Cc1ccc(-c2ccccc2-c2nc3ccccc3o2)cc1
C: COc1ccc(-c2ccccc2-c2nc3ccccc3o2)cc1
D: COc1ccc(-c2ccccc2-c2nc3ccccc3o2)cc1Cl
Hello, I need these entries ordered by inhibition, highest reading first. Thanks! Sort the labels as requested; that list is your answer.
D, B, C, A

====

Measured Target: Prostaglandin G/H synthase 2 (Homo sapiens) (UniProt P35354)
Sequence (whole entry): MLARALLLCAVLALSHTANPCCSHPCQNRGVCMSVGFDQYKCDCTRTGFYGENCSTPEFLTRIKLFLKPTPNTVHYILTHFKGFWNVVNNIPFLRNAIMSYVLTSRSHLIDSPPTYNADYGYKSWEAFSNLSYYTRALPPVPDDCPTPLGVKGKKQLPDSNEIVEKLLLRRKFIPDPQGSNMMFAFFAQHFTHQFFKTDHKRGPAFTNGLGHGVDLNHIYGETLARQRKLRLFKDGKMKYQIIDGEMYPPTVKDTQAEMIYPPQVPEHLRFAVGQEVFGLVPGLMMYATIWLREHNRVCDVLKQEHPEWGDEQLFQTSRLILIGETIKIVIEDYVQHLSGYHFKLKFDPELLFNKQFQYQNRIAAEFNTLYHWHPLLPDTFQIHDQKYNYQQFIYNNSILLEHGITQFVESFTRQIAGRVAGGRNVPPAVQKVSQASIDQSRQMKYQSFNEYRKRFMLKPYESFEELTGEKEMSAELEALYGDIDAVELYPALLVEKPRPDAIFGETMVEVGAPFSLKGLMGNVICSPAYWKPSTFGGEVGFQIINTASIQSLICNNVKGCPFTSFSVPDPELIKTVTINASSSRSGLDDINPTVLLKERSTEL
Setup Conditions: at 10 µM
Test Readout: inhibition (%)

>  <Cpd Smiles>
Oc1ccc(-c2ccccc2-c2nc3ccccc3o2)cc1Cl

>  <Measurement Unit>
%

>  <inhibition>
94.9

$$$$
>  <Cpd Smiles>
Clc1cc(-c2ccccc2-c2nc3ccccc3o2)ccc1OCc1ccccc1

>  <Measurement Unit>
%

>  <inhibition>
17

$$$$
>  <Cpd Smiles>
COc1ccc(-c2ccccc2-c2nc3ccccc3o2)cc1OC1CCCC1

>  <Measurement Unit>
%

>  <inhibition>
14.8

$$$$
>  <Cpd Smiles>
CSc1ccc(-c2ccccc2-c2nc3ccccc3o2)cc1

>  <Measurement Unit>
%

>  <inhibition>
43.5

$$$$
>  <Cpd Smiles>
CC(C)Oc1ccc(-c2ccccc2-c2nc3ccccc3o2)cc1Cl

>  <Measurement Unit>
%

>  <inhibition>
33.9

$$$$
>  <Cpd Smiles>
c1ccc(-c2ccccc2-c2nc3ccccc3o2)cc1

>  <Measurement Unit>
%

>  <inhibition>
10.6

$$$$

1: COc1cccc(-c2ccccc2-c2nc3ccccc3o2)c1OC
2: COc1ccc(-c2ccccc2-c2nc3ccccc3o2)cc1OC
Look at 1 and 2 . Which one has the lower recorded inhibition number? # answer = label of selected item
1
(1: 59.9%, 2: 86.6%)

====

Measured Target: Prostaglandin G/H synthase 1 (Ovis aries)
Test Readout: IC50 (µM)

>  <Cpd Smiles>
CS(=O)(=O)c1ccc(-c2ccccc2-c2nc3ccccc3o2)cc1

>  <Measured Target>
Prostaglandin G/H synthase 1 (Ovis aries)

>  <Test Readout>
IC50

>  <Measurement Unit>
µM

>  <Value Measured>
45.1

$$$$
>  <Cpd Smiles>
Oc1ccc(-c2ccccc2-c2nc3ccccc3o2)cc1Cl

>  <Measured Target>
Prostaglandin G/H synthase 1 (Ovis aries)

>  <Test Readout>
IC50

>  <Measurement Unit>
µM

>  <Value Measured>
46.2

$$$$

====

Tested on: Rattus norvegicus
Assay Remarks: Antiinflammatory activity in Wistar albino rat assessed as reduction in carrageenan-induced hind paw volume at 12.5 mg/kg, ip administered 10 mins after carrageenan-challenge measured up to 3 hrs
Type: functional
Setup Conditions: route intraperitoneal
Known inhibition in vivo at 12.5 mg/kg of a selection of molecules
Unit % implied. Number only.

Look over these answered cases.
>  <Cpd Smiles>
COc1ccc(-c2ccccc2-c2nc3ccccc3o2)cc1Cl

>  <inhibition in vivo at 12.5 mg/kg / %>
53.9

$$$$
>  <Cpd Smiles>
CS(=O)(=O)c1ccc(-c2ccccc2-c2nc3ccccc3o2)cc1

>  <inhibition in vivo at 12.5 mg/kg / %>
62.5

$$$$
>  <Cpd Smiles>
Cc1ccc(-c2cc(C(F)(F)F)nn2-c2ccc(S(N)(=O)=O)cc2)cc1

>  <inhibition in vivo at 12.5 mg/kg / %>
60.6

$$$$
>  <Cpd Smiles>
Oc1ccc(-c2ccccc2-c2nc3ccccc3o2)cc1Cl

>  <inhibition in vivo at 12.5 mg/kg / %>
68.3

$$$$

Consider the molecule `O=C(O)Cc1ccccc1Nc1c(Cl)cccc1Cl` and give its measured inhibition in vivo at 12.5 mg/kg.
67.3

====

Measured Target: Prostaglandin G/H synthase 1 (Ovis aries) (UniProt P05979)
Sequence (P05979 whole entry): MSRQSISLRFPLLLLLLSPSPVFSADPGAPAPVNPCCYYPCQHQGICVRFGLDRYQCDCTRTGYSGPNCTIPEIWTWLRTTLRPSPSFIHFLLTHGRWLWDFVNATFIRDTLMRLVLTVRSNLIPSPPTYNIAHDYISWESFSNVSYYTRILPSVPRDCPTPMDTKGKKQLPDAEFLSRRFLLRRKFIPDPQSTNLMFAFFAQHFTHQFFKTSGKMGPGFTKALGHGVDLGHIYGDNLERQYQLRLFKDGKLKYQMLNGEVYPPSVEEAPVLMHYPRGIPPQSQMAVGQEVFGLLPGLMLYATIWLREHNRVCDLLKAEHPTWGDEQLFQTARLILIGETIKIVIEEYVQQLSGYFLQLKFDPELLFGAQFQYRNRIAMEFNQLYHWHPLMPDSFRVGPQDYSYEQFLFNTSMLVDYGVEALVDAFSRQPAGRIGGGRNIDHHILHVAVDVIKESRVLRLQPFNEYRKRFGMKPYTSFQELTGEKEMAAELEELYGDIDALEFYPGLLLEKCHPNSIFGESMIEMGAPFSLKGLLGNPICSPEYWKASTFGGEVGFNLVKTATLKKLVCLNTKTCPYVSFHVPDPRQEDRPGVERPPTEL
Assay Remarks: Inhibition of ovine COX1 using arachidonic acid as substrate at 10 uM
Test Readout: inhibition (%)

Look over these answered cases.
>  <Cpd Smiles>
FC(F)(F)c1ccc(-c2ccccc2-c2nc3ccccc3o2)cc1

>  <inhibition (%)>
3.45

$$$$
>  <Cpd Smiles>
CS(=O)(=O)c1ccc(-c2ccccc2-c2nc3ccccc3o2)cc1

>  <inhibition (%)>
10.8

$$$$
>  <Cpd Smiles>
Fc1ccc(-c2ccccc2-c2nc3ccccc3o2)cc1

>  <inhibition (%)>
1.65

$$$$
>  <Cpd Smiles>
COc1ccc(-c2ccccc2-c2nc3ccccc3o2)cc1

>  <inhibition (%)>
19.1

$$$$

a: COc1ccc(-c2ccccc2-c2nc3ccccc3o2)cc1OC
b: Oc1ccc(-c2ccccc2-c2nc3ccccc3o2)cc1Cl
Look at a and b . Which one has the lower recorded inhibition number? # answer = label of selected item
b

a: COc1ccc(-c2ccccc2-c2nc3ccccc3o2)cc1OC1CCCC1
b: Clc1cc(-c2ccccc2-c2nc3ccccc3o2)ccc1OCc1ccccc1
c: CSc1ccc(-c2ccccc2-c2nc3ccccc3o2)cc1
d: CC(C)Oc1ccc(-c2ccccc2-c2nc3ccccc3o2)cc1Cl
Put the compounds in ascending order of inhibition. Sort the labels as requested; that list is your answer.
d, c, b, a

1: c1ccc(-c2ccccc2-c2nc3ccccc3o2)cc1
2: N#Cc1ccc(-c2ccccc2-c2nc3ccccc3o2)cc1
3: COc1cccc(-c2ccccc2-c2nc3ccccc3o2)c1OC
Hello, I need these entries ordered by inhibition, highest reading first. Thanks! Sort the labels as requested; that list is your answer.
3, 1, 2
(3: 74.9%, 1: 24%, 2: 8.46%)

====

Assay Remarks: Selectivity for human recombinant COX2 to ovine COX1
Test Readout: Selectivity ratio

>  <Cpd Smiles>
Oc1ccc(-c2ccccc2-c2nc3ccccc3o2)cc1Cl

>  <Selectivity ratio>
12.6

$$$$

I: CC(C)Oc1ccc(-c2ccccc2-c2nc3ccccc3o2)cc1Cl
II: CSc1ccc(-c2ccccc2-c2nc3ccccc3o2)cc1
Select the item with the higher value of Selectivity ratio from the options I and II listed. # answer = label of selected item
I
(I: 15.5, II: 10.7)
